Test system: sodium channels
Format: cell-based
Conditions: read-out: IC50 (μM), sodium channel-inhibiting activity; rat fetal cultured hippocampal neurons, SBFI fluorescence in the presence of 4-aminopyridine, 5 minutes after addition, 1 μM tetrodotoxin = 100%
MEASURE_NAME: IC50 (µM)
Give a bare numeral; the unit µM is implied.

*Q* GET /values?readout=IC50&item= O=c1cncc(CCN2CCC(CCc3ccccc3F)CC2)[nH]1
*A* 5.7

*Q* GET /values?readout=IC50&item= COc1cccc(OCC2CCN(Cc3ncc[nH]c3=O)CC2)c1
*A* 3.5

*Q* GET /values?readout=IC50&item= O=c1[nH]ccnc1CN1CCC(COc2ccccc2F)CC1
*A* 4.2

*Q* GET /values?readout=IC50&item= O=c1[nH]ccnc1CN1CCOC(COc2ccccc2F)C1 (stereo not shown)
*A* 3

*Q* GET /values?readout=IC50&item= O=c1cncc(CCN2CCC(COc3cc(F)ccc3F)CC2)[nH]1
*A* 5

*Q* GET /values?readout=IC50&item= Cc1ccccc1OCC1(C)CCN(Cc2ncc[nH]c2=O)CC1
*A* 2.5

*Q* GET /values?readout=IC50&item= COc1ccccc1CCC1CCCN(Cc2ncc[nH]c2=O)C1 (stereo not shown)
*A* 3.5

*Q* GET /values?readout=IC50&item= O=c1[nH]ccnc1CN1CCC(/C=C/c2cccc(F)c2)CC1
*A* 5.4

*Q* GET /values?readout=IC50&item= O=C(Cc1cc(F)ccc1F)C1CCN(Cc2ncc[nH]c2=O)CC1
*A* 6.6

*Q* GET /values?readout=IC50&item= Cc1ccccc1OCC1CCCN(Cc2ncc[nH]c2=O)C1 (stereo not shown)
*A* 3.1
